Tested on: CAF#5 (primary prostate cancer-associated fibroblasts of myCAF-like type)
Assay: drug sensitivity score (DSS2, normalised partial AUC of dose-response, 72 h CellTiter-Glo viability) (DSS (dimensionless)); higher = more sensitive (stronger growth inhibition / cytotoxicity); extreme values may be limits of the assay
The reader will find reported drug sensitivity score values listed item by item below.
measurement name: drug sensitivity score

INSERT INTO measurements (compound, quantitative_result) VALUES
  ('CC(C)N(C[C@H]1O[C@@H](n2cnc3c(N)ncnc32)[C@H](O)[C@@H]1O)[C@H]1C[C@@H](CCc2nc3cc(C(C)(C)C)ccc3[nH]2)C1 [Pinometostat] (tested concentration range 0.1-1000 nM)', 0),
  ('COc1cc([C@@H]2c3cc4c(cc3[C@@H](O[C@@H]3O[C@@H]5CO[C@@H](C)O[C@H]5[C@H](O)[C@H]3O)[C@H]3COC(=O)[C@H]23)OCO4)cc(OC)c1O [Etoposide] (tested concentration range 1-10000 nM)', 3),
  ('COc1ccc(Cn2ccc3ccc(C(=O)NO)cc32)cc1 (tested concentration range 1-10000 nM)', 1.4),
  ('COc1cc2nccc(Oc3ccc(NC(=O)NC4CC4)c(Cl)c3)c2cc1C(N)=O [Lenvatinib] (tested concentration range 0.2-2500 nM)', 0.3),
  ('COc1cc2c(NC3CCN(C(C)C)CC3)nc(N3CCC(F)(F)CC3)nc2cc1OCCCN1CCCC1 [UNC0642] (tested concentration range 1-10000 nM)', 0);

* * *

The reader will find reported drug sensitivity score values listed item by item below.
Tested on: CAF#7 (primary prostate cancer-associated fibroblasts of myCAF-like type)
Test: drug sensitivity score (DSS2, normalised partial AUC of dose-response, 72 h CellTiter-Glo viability) (DSS (dimensionless)); higher = more sensitive (stronger growth inhibition / cytotoxicity); extreme values may be limits of the assay
measurement name: drug sensitivity score

INSERT INTO assay_data (molecule, measurement_name, quantitative_result) VALUES
  ('CCC/C=C/C=C/C(=O)O[C@H]1/C(=C/C(=O)OC)C[C@H]2C[C@H]([C@@H](C)O)OC(=O)C[C@H](O)C[C@@H]3C[C@H](OC(C)=O)C(C)(C)[C@](O)(C[C@@H]4C/C(=C/C(=O)OC)C[C@H](/C=C/C(C)(C)[C@]1(O)O2)O4)O3 [Bryostatin 1] (tested concentration range 0-100 nM)', 'drug sensitivity score', 4),
  ('CCC1(c2ccc(N)cc2)CCC(=O)NC1=O (stereo unspecified) [Aminoglutethimide] (tested concentration range 1-10000 nM)', 'drug sensitivity score', 0),
  ('COc1cc(OC2CCN(C)CC2)ccc1Nc1ncc2c(n1)n(C1CCCC1)c(=O)n2C [AZ 3146] (tested concentration range 1-10000 nM)', 'drug sensitivity score', 2.8),
  ('CC[C@@H]1CN(C(=O)NCC(F)(F)F)C[C@@H]1c1cnc2cnc3[nH]ccc3n12 [Upadacitinib] (tested concentration range 1-10000 nM)', 'drug sensitivity score', 0),
  ('O[C@H]1CC[C@H](Nc2ncc3nc(Nc4c(F)cc(F)cc4F)n([C@H]4CCOC4)c3n2)CC1 [Tanzisertib] (tested concentration range 1-10000 nM)', 'drug sensitivity score', 0),
  ('COc1cc2c(NC3CCN(C(C)C)CC3)nc(C3CCCCC3)nc2cc1OCCCN1CCCC1 [UNC0638] (tested concentration range 1-10000 nM)', 'drug sensitivity score', 6.6),
  ('C[C@H]1Oc2cc(cnc2N)-c2c(nn(C)c2C#N)CN(C)C(=O)c2ccc(F)cc21 [Lorlatinib] (tested concentration range 0.1-1000 nM)', 'drug sensitivity score', 2.9),
  ('NS(=O)(=O)OC[C@@H]1C[C@@H](n2ccc3c(N[C@H]4CCc5ccccc54)ncnc32)C[C@@H]1O [Pevonedistat] (tested concentration range 1-10000 nM)', 'drug sensitivity score', 5),
  ('CN1CCc2c(c3ccccc3n2Cc2ccc(C(=O)NO)cc2)C1 [Tubastatin A] (tested concentration range 1-10000 nM)', 'drug sensitivity score', 0),
  ('C[C@@H]1CN(Cc2ccc(F)cc2)[C@@H](C)CN1C(=O)c1cc2c(C(=O)C(=O)N(C)C)cn(C)c2cc1Cl [Talmapimod] (tested concentration range 1-10000 nM)', 'drug sensitivity score', 0),
  ('Cc1cc(F)c(C(=O)Nc2cccc(-c3nncn3C(C)C)n2)cc1-n1cnc(C2CC2)c1 [Selonsertib] (tested concentration range 0.1-1000 nM)', 'drug sensitivity score', 0);

* * *

Tested on: CAF#7
Assay: drug sensitivity score (DSS2, normalised partial AUC of dose-response, 72 h CellTiter-Glo viability) (DSS (dimensionless)); higher = more sensitive (stronger growth inhibition / cytotoxicity); extreme values may be limits of the assay
measurement name: drug sensitivity score

INSERT INTO assay_data (molecule, measurement_name, quantitative_result) VALUES
  ('Nc1nc(Cl)nc2c1ncn2[C@@H]1O[C@H](CO)[C@@H](O)[C@@H]1F [Clofarabine] (tested concentration range 1-10000 nM)', 'drug sensitivity score', 9.3),
  ('C[C@@H]1CN(C(=O)c2ccc(NC(=O)c3cc(O[C@H](C)c4c(Cl)ccc(F)c4Cl)c(N)nn3)cc2)C[C@H](C)N1 [Ensartinib] (tested concentration range 0.1-1000 nM)', 'drug sensitivity score', 0.8),
  ('C[C@H]1C[C@@H]2[C@H]([C@@H](O)C[C@@]3(C)[C@H]2CC[C@]3(O)C(=O)CO)[C@@]2(C)C=CC(=O)C=C12 [Methylprednisolone] (tested concentration range 1-10000 nM)', 'drug sensitivity score', 1.2),
  ('CC(C)C[C@H](NC(=O)[C@@H](COC(C)(C)C)NC(=O)[C@H](Cc1ccc(O)cc1)NC(=O)[C@H](CO)NC(=O)[C@H](Cc1c[nH]c2ccccc12)NC(=O)[C@H](Cc1cnc[nH]1)NC(=O)[C@@H]1CCC(=O)N1)C(=O)N[C@@H](CCCNC(=N)N)C(=O)N1CCC[C@H]1C(=O)NNC(N)=O [Goserelin] (tested concentration range 1-10000 nM)', 'drug sensitivity score', 0),
  ('Nc1nc(Cl)nc2c1ncn2[C@H]1C[C@H](O)[C@@H](CO)O1 [Cladribine] (tested concentration range 0.1-1000 nM)', 'drug sensitivity score', 0.6),
  ('COc1cc(Nc2ncc3c(n2)-c2ccc(Cl)cc2C(c2c(F)cccc2OC)=NC3)ccc1C(=O)O [Alisertib] (tested concentration range 1-10000 nM)', 'drug sensitivity score', 3.5),
  ('C[C@@H]1CCN(C(=O)CC#N)C[C@@H]1N(C)c1ncnc2[nH]ccc12 [Tofacitinib] (tested concentration range 0.5-5000 nM)', 'drug sensitivity score', 0.1),
  ('Cn1cc(C2=C(c3cn(C4CCN(Cc5ccccn5)CC4)c4ccccc34)C(=O)NC2=O)c2ccccc21 [Enzastaurin] (tested concentration range 1-10000 nM)', 'drug sensitivity score', 0),
  ('O=C(O)c1ccc(-c2c[nH]c3ncc(-c4ccccc4)cc23)cc1C1CCCC1 (tested concentration range 1-10000 nM)', 'drug sensitivity score', 0),
  ('C=C(c1ccc(C(=O)O)cc1)c1cc2c(cc1C)C(C)(C)CCC2(C)C [Bexarotene] (tested concentration range 1-10000 nM)', 'drug sensitivity score', 1.2);

* * *

Test system: CAF#3 (primary prostate cancer-associated fibroblasts of myCAF-like type)
Experiment: drug sensitivity score (DSS2, normalised partial AUC of dose-response, 72 h CellTiter-Glo viability) (DSS (dimensionless)); higher = more sensitive (stronger growth inhibition / cytotoxicity); extreme values may be limits of the assay
The reader will find reported drug sensitivity score values listed item by item below.
measurement name: drug sensitivity score

INSERT INTO assay_data (molecule, quantitative_result) VALUES
  ('COc1cc(CCc2cc(NC(=O)c3ccc(N4CC(C)NC(C)C4)cc3)n[nH]2)cc(OC)c1 (configuration not stated) [AZD4547] (tested concentration range 0.1-1000 nM)', 6.7),
  ('COc1c(OCCCN2CCOCC2)ccc2c1N=C(NC(=O)c1cnc(N)nc1)N1CCN=C21 [Copanlisib] (tested concentration range 0.1-1000 nM)', 6),
  ('CNC(=O)c1cc(Oc2ccc(NC(=O)Nc3ccc(Cl)c(C(F)(F)F)c3)c(F)c2)ccn1 [Regorafenib] (tested concentration range 1-10000 nM)', 3.7),
  ('Cc1cc(Nc2ncnc3ccc(NC4=NC(C)(C)CO4)cc23)ccc1Oc1ccn2ncnc2c1 [Tucatinib] (tested concentration range 0.2-2500 nM)', 0),
  ('COCC1(CO)C(=O)C2CCN1CC2 (configuration not stated) [Eprenetapopt] (tested concentration range 1-10000 nM)', 0),
  ('CN(C)C[C@@H]1CCn2cc(c3ccccc32)C2=C(C(=O)NC2=O)c2cn(c3ccccc23)CCO1 [Ruboxistaurin] (tested concentration range 1-10000 nM)', 8.9),
  ('C#Cc1cccc(Nc2ncnc3cc(OCCOC)c(OCCOC)cc23)c1 [Erlotinib] (tested concentration range 1-10000 nM)', 1.2),
  ('Nc1ncnc2c1c(COc1cccc(Cl)c1)nn2C1CCOCC1 (tested concentration range 1-10000 nM)', 2.8),
  ('NCC(=O)Nc1ccc(-n2nc(C(F)(F)F)cc2-c2ccc3c(ccc4ccccc43)c2)cc1 (tested concentration range 2.5-25000 nM)', 0),
  ('CC1=C(/C=C/C(C)=C/C=C/C(C)=C/C(=O)O)C(C)(C)CCC1 [Tretinoin] (tested concentration range 1-10000 nM)', 0.2),
  ('O=C(O)c1ccc(-c2c[nH]c3ncc(-c4ccccc4)cc23)cc1C1CCCC1 (tested concentration range 1-10000 nM)', 0),
  ('CCn1c(-c2nonc2N)nc2cnc(Oc3cccc(NC(=O)c4ccc(OCCN5CCOCC5)cc4)c3)cc21 (tested concentration range 1-10000 nM)', 0.2);
